Values compiled from ChEMBL document CHEMBL1201862.

Tested on: SF-268
Measurement notes: NCI tumour cell line growth inhibition, 48 h
Activity calls are given as the source filed them. Rule as the data show it: active = GI50 up to about 1.1 µM and inactive = higher.
Assign GI50 to each entry below.

Determine reported GI50 for O=C(O)Cc1cccnc1 ; test system: SF-268.
> 100 µM (inactive)

Determine reported GI50 for O=C(NC(COC(=O)C(Cc1ccccc1)NC(=O)c1ccccc1)Cc1ccccc1)c1ccccc1 (configuration not stated) ; test system: SF-268.
> 50 µM (inactive)

Determine reported GI50 for COc1cc(NCc2ccc3n2-c2ccccc2OC3)cc(OC)c1OC ; test system: SF-268.
46.5 µM (inactive)

Determine reported GI50 for COC(=O)[C@@H]1CSC(=S)N1C(=O)C[C@H]1CC=CC[C@H]1CC(=O)Sc1ccccc1 ; test system: SF-268.
15.1 µM (inactive)

Determine reported GI50 for COc1ccc(-c2cn3c(n2)sc2cc(C)ccc23)cc1 ; test system: SF-268.
22.8 µM (inactive)

Determine reported GI50 for CCn1c(-c2ccc(OC)cc2)nc2c1C(=O)c1ccccc1C2=O ; test system: SF-268.
> 100 µM (inactive)

Determine reported GI50 for COC12C(COC(=O)NCCO)C3=C(C(=O)C(C)=C(N)C3=O)N1CC1NC12 (configuration not stated) ; test system: SF-268.
11.6 µM (inactive)

Determine reported GI50 for CCCCCCCCCCCCCCCCCCOCC(COCCOCC[N+]1(CCCCCC(=O)[O-])CCCC1)Oc1ncccn1 (configuration not stated) ; test system: SF-268.
3.51 µM (inactive)

Determine reported GI50 for CCCCC1=C(C(=O)N2CCOCC2)C2(OCCO2)C1=O ; test system: SF-268.
24 µM (inactive)

Determine reported GI50 for CCOC(=O)C1=C(C)Nc2ccccc2S1 ; test system: SF-268.
> 100 µM (inactive)

Determine reported GI50 for O=C(CC(=O)N1N=C(c2ccccc2)C(/N=N/c2ccc(S(=O)(=O)CCOS(=O)(=O)O)cc2)C1=O)Nc1ccc(Cl)cc1 (configuration not stated) ; test system: SF-268.
> 100 µM (inactive)

Determine reported GI50 for CSC1=N/C(=C\c2cccs2)C(=O)N1CN1CCOCC1 ; test system: SF-268.
42.3 µM (inactive)

Determine reported GI50 for c1ccc(CSC(SCc2ccccc2)c2cccc3ccccc23)cc1 ; test system: SF-268.
> 10 µM (inactive)

Determine reported GI50 for Cc1cn(Cc2cnnn2CC2OC(n3cc(C)c(=O)[nH]c3=O)CC2O)c(=O)[nH]c1=O (configuration not stated) ; test system: SF-268.
> 100 µM (inactive)

Determine reported GI50 for O=C1CC2CCN(C(=O)c3ccccc3)CC2CCN1.O=C1CCC2CC(C(=O)c3ccccc3)CCC2CN1 (configuration not stated) ; test system: SF-268.
> 100 µM (inactive)

Determine reported GI50 for N#CCCN(CCC#N)c1ccc(C(/N=N/c2ccccc2)=N\c2ccccc2)cc1 ; test system: SF-268.
> 100 µM (inactive)

Determine reported GI50 for CC1=NN(C(=O)Nc2ccccc2)C(=O)C2CCC(=O)N12 (configuration not stated) ; test system: SF-268.
> 100 µM (inactive)

Determine reported GI50 for COC(=O)C1CC(=O)CCC1c1ccccc1 (configuration not stated) ; test system: SF-268.
> 100 µM (inactive)

Determine reported GI50 for FC(F)(F)C(C1=NC(C(F)(F)F)(C(F)(F)F)N=C(N2CCOCC2)O1)C(F)(F)F ; test system: SF-268.
36.1 µM (inactive)

Determine reported GI50 for COC(=O)C1=CON2C3CC4CC(C3)CC(C4)C12C (configuration not stated) ; test system: SF-268.
> 100 µM (inactive)

Determine reported GI50 for CC(NC(=O)c1ccccc1)(C(=O)O)C(=O)O ; test system: SF-268.
> 100 µM (inactive)

Determine reported GI50 for Nc1nc(Cl)cc(NCC2(CO)CC=CC2)n1 ; test system: SF-268.
> 100 µM (inactive)
